- system name: T1, RSV F ectodomain stabilized in the postfusion conformation (F ΔFP), subtype A (Respiratory syncytial virus subtype A, UniProt P03420 26-109; P03420 147-524)
- T1 construct: extracellular domain; trimer; furin-cleaved; also called Postfusion subtype A
- test method notes: BLI, IgG on AHQ sensor, 100 nM antigen
Catalogue of Kd readings, one per entry.

| binder | Kd |
| --- | --- |
| ADI-14476 (antibody, V domains shown, full-length IgG (yeast-expressed); also called Antibody Number 38; Ab# 38) VH: QVQLVESGPTLVKPTQTLSLTCTFSGFSLTTRGVGVGWIRQPPGKALEWLGFTYWDGDDRYSPSLRNRVSIAKDTSKNQVVLTLTNMDPVDTATYFCVHSDRYDRGGYYLYFFDYWGPGTLVTVSS VL: DIRVTQSPSSLSASVGDRVSISCRASQTIASYVNWYQQRPGKAPQLLIFAASHLQTGVPSRFSGRGSGTDFTLTITSLQPEDFATYYCQQSYTSPYTFGQGTKVEIK | 0.827 nM |
| ADI-14454 (antibody, V domains shown, full-length IgG (yeast-expressed); also called Antibody Number 17; Ab# 17) VH: QVQLVQSGPTLVKPTQTLTLTCTFSGFSLSTRGVGVGWIRQPPGKALECLGFTYWDGDQFHSPSLKNRLTITKDTSKNQVVLRMTNMDPVDTATYFCVHSDLYDSGGYYLYYFDYWGQGTLVTVSS VL: DIQMTQSPSSLSASVGDRVTITCRASQTIASYLNWYQQRPGEAPKLLIYAASSLQSGVSSRFSGRGSGTDFTLTINILQPEDLATYFCQQAYSAPYTFGQGTKVEIK | 0.297 nM |
| ADI-14457 (antibody, V domains shown, full-length IgG (yeast-expressed); also called Antibody Number 20; Ab# 20) VH: QVTLKESGPALVRPKQTLTLTCSFSGFSLDTQRTGVNWIRQSPGKALEWLARIDWDGNIYSSTSVRTKLSISKGTSKNQVVLTMTDVDPVDTATYYCARTLYYTSGGYYLNLFDYWGQGTLVTVSS VL: EIVMTQSPPSLSASVGDRVTITCRASQTIPSYVNWYQQISGKAPRLLIYAASLLQSGVPSRFSGSGSGTEFSLTISGLRPEDFGTYYCQQSYSSTPTFGQGTKVEIK | 0.38 nM |
| ADI-14500 (antibody, V domains shown, full-length IgG (yeast-expressed); also called Antibody Number 61; Ab# 61) VH: EVQLLESGGGLVKPGGSLRLSCAASGFIFNNAWMTWVRQAPGRGLEWVGRIKTNADGGTADYSTPVKGRFAISRDDSTNTLYLQMNSLKTEDTAVYYCTTGPPYKYSDSTGYSVVDYWGQGTLVTVSS VL: SYELTQPPSASGTPGQRVTISCSGSSSNIGSNYVYWYQQLPGTAPKLLIYSTNQRPSGVPDRFSGSQSGTSASLAISGLRSEDEADYYCAAWDDRLSGPVFGGGTQLTVL | 0.714 nM |
| ADI-14506 (antibody, V domains shown, full-length IgG (yeast-expressed); also called Antibody Number 67; Ab# 67) VH: QVQLVQSGAEVKKPGSSVKVSCKVAGGSFSNYAIAWLRQAPGQGLEWMGGIIPAFNRAMYARKFQDRVTITAYASTTTAYLDITGLRSEDTALYYCARPAGDFGDLKWVRSPFDYWGQGTLITVSS VL: DIVMTQTPGTLSVSPGERATLSCRASQDVGINLAWYQQKPGQAPRLLIYGASTRATDVPAKFSGSGSGTDFTLTISSLQSEDFGVYYCQEYNDWPPQLSFGPGTKVDIK | 13.1 nM |

Values compiled from patent US20250313612A1.
